The following compounds are shown together with reported inhibition at 1 µM values.
- TARGET_UNDER_TEST: KRAS-G12D protein (Homo sapiens, UniProt P01116, G12D)
- Construct: host or cells: Aspc-1 cells
- Sequence (P01116 1-188 isoform P01116-2 G12D): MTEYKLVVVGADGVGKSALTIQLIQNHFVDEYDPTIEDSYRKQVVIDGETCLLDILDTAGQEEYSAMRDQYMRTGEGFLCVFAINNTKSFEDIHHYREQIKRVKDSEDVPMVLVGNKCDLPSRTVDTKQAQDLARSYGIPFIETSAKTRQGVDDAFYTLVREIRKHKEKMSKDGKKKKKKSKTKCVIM
- EXPERIMENTAL_PROTOCOL: KRAS-G12D protein degradation study in Aspc-1 cells (western blot)
- Type: cell-based
- RUN_CONDITIONS: ASPC1, 24 h, Aspc-1 cells treated with 1 μM compound, 24 hours; read-out: Rate of protein degradation (KRAS^G12D)

{"COMPOUND": "C#Cc1c(F)ccc2cc(O)cc(-c3ncc4c(N5CC6CCC(C5)N6)nc(OC5CCN(CCCCCCCCCCC(=O)N[C@H](C(=O)N6C[C@H](O)C[C@H]6C(=O)NCc6ccc(-c7scnc7C)cc6)C(C)(C)C)CC5)nc4c3F)c12", "inhibition at 1 µM": "> 60%"}
{"COMPOUND": "C#Cc1c(F)ccc2cc(O)cc(-c3ncc4c(N5CC6CCC(C5)N6)nc(OCC5CCN(CCCCCCCCCCC(=O)N6CCC(c7ccc8c(C9CCC(=O)NC9=O)nn(C)c8c7)CC6)C5)nc4c3F)c12 (stereo not shown)", "inhibition at 1 µM": "> 60%"}
{"COMPOUND": "CCc1c(F)ccc2cc(O)cc(-c3ncc4c(N5CC6CCC(C5)N6)nc(OCC56CCCN5[C@@H](COC(=O)NCCCCC(=O)N[C@H](C(=O)N5C[C@H](O)C[C@H]5C(=O)N[C@@H](C)c5ccc(-c7scnc7C)cc5)C(C)(C)C)CC6)nc4c3F)c12 (stereo partly shown)", "inhibition at 1 µM": "31 to 60%"}
{"COMPOUND": "CCc1c(F)ccc2cc(O)cc(-c3ncc4c(N5CC6CCC(C5)N6)nc(OC5CCN(CCCCCCCCCCC(=O)N[C@H](C(=O)N6C[C@H](O)C[C@H]6C(=O)NCc6ccc(-c7scnc7C)cc6)C(C)(C)C)CC5)nc4c3F)c12", "inhibition at 1 µM": "31 to 60%"}

Data provenance: patent US20230321253A1
